pIC50: −log10 of the molar value.
// merged dataset of pIC50 values, system = Oxysterols receptor LXR-alpha (Homo sapiens), multiple refs
Entry flag: YES if pIC50 reaches 6; NO if it does not.

Would you say CCc1nc2c(C(F)(F)F)cccn2c1-c1ccc(Oc2cccc(S(=O)(=O)CC)c2)cc1 shows pIC50 at minimum 6?
NO

Would you say O=C(O)Cc1cccc(NCc2cccc(-c3c(Cc4ccccc4)cnc4c(C(F)(F)F)cccc34)c2)c1 shows pIC50 at minimum 6?
YES

Would you say CC(C)c1nc2c(Cl)cccn2c1-c1cccc(OCc2ccc(S(C)(=O)=O)cc2)c1 shows pIC50 at minimum 6?
NO

Would you say CS(=O)(=O)c1cccc(Oc2cccc(-c3c(Cc4ccccc4)nn4c(C(F)(F)F)ccnc34)c2)c1 shows pIC50 at minimum 6?
YES

Would you say CCCCS(=O)(=O)N(Cc1ccc(-c2cccc(S(C)(=O)=O)c2)s1)CC(C)C shows pIC50 at minimum 6?
NO

Would you say NCCCS(=O)(=O)c1cccc(Oc2ccc(F)c(-c3ncnc4c(C(F)(F)F)cccc34)c2)c1 shows pIC50 at minimum 6?
NO

Would you say O=C(O)CCc1cccc(NCc2cccc(-c3c(Cc4ccccc4)cnc4c(C(F)(F)F)cccc34)c2)c1 shows pIC50 at minimum 6?
YES

Would you say NC(=O)CCCCS(=O)(=O)c1cccc(Oc2ccc(F)c(-c3ncnc4c(Cl)cccc34)c2)c1 shows pIC50 at minimum 6?
NO

Would you say Cc1cc(Oc2cc(F)cc(S(C)(=O)=O)c2)ccc1-n1c(C)nc2c(C(F)(F)F)cccc21 shows pIC50 at minimum 6?
NO

Would you say CS(=O)(=O)NCCCS(=O)(=O)c1cccc(Oc2ccc(F)c(-c3ncnc4c(Cl)cccc34)c2)c1 shows pIC50 at minimum 6?
NO

Would you say Cc1cnc2c(C(F)(F)F)cccc2c1-c1cccc(CNc2ccc3cc(C(=O)O)ccc3c2)c1 shows pIC50 at minimum 6?
NO

Would you say CCS(=O)(=O)c1cccc(Oc2cccc(-c3c(Cc4ccccc4)nn4c(C(F)(F)F)ccnc34)c2)c1 shows pIC50 at minimum 6?
YES
